Source of measurements: patent US20110118131A1

- systemTested: T1, IL-1β (UniProt P01584 117-269)
- T1 construct: Antigen of XPA23
- assayText: Biacore, Fab periplasmic extract
endpointLabel: fold difference in affinity against the original (fold)
I only need the number, in fold, no unit after it.

Solved cases below.
XPA23 heavy chain S30I (Fab, V domains shown, Fab, periplasmic extract; also called C5A S30I) VH: EVQLLESGGGLVQPGGSLRLSCAASGFTFIKYFMFWVRQAPGKGLEWVSVISPSGGMTRYADSVKGRFTISRDNSKNTLYLQMNSLRAEDTAVYYCARVGYGGNSDYWGQGTLVTVSS VL: DIQMTQSPSSVSASVGDRLTIICRASQDINRWLAWYQQTPGNAPKLLIHSATSLQSGVPSRFSGSGSGTDFTLTINSLQPEDFATYYCQQADSFPLTFGGGTKVEIK; 0.08
XPA23 heavy chain G56A (Fab, V domains shown, Fab, periplasmic extract; also called C5A G56A) VH: EVQLLESGGGLVQPGGSLRLSCAASGFTFSKYFMFWVRQAPGKGLEWVSVISPSGAMTRYADSVKGRFTISRDNSKNTLYLQMNSLRAEDTAVYYCARVGYGGNSDYWGQGTLVTVSS VL: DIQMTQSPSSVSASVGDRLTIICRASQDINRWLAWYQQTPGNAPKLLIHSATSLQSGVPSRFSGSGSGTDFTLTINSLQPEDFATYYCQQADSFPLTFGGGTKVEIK; 1.21
XPA23 heavy chain S105P (Fab, V domains shown, Fab, periplasmic extract; also called C5A S105P) VH: EVQLLESGGGLVQPGGSLRLSCAASGFTFSKYFMFWVRQAPGKGLEWVSVISPSGGMTRYADSVKGRFTISRDNSKNTLYLQMNSLRAEDTAVYYCARVGYGGNPDYWGQGTLVTVSS VL: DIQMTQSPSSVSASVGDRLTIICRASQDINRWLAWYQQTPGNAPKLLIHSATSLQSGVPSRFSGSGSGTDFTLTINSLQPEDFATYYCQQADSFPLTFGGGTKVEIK; 1.41
XPA23 heavy chain K31I (Fab, V domains shown, Fab, periplasmic extract; also called C5A K31I) VH: EVQLLESGGGLVQPGGSLRLSCAASGFTFSIYFMFWVRQAPGKGLEWVSVISPSGGMTRYADSVKGRFTISRDNSKNTLYLQMNSLRAEDTAVYYCARVGYGGNSDYWGQGTLVTVSS VL: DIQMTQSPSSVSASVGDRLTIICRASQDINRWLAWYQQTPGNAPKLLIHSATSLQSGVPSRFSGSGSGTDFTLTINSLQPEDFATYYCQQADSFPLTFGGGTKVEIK; 0.74

[ask] Sample XPA23 heavy chain S54P (Fab, V domains shown, Fab, periplasmic extract; also called C5A S54P) VH: EVQLLESGGGLVQPGGSLRLSCAASGFTFSKYFMFWVRQAPGKGLEWVSVISPPGGMTRYADSVKGRFTISRDNSKNTLYLQMNSLRAEDTAVYYCARVGYGGNSDYWGQGTLVTVSS VL: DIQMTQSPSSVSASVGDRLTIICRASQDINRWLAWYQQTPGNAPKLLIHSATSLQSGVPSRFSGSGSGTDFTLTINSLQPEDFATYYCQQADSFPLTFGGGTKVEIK — what was its fold difference in affinity against the original?
[reply] 0.06

[ask] Thanks! And XPA23 heavy chain V50I (Fab, V domains shown, Fab, periplasmic extract; also called C5A V50I) VH: EVQLLESGGGLVQPGGSLRLSCAASGFTFSKYFMFWVRQAPGKGLEWVSIISPSGGMTRYADSVKGRFTISRDNSKNTLYLQMNSLRAEDTAVYYCARVGYGGNSDYWGQGTLVTVSS VL: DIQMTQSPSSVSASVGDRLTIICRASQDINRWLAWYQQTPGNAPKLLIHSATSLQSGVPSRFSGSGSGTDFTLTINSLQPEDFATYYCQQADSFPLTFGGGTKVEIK ?
[reply] 0.1

[ask] Field entry: XPA23 heavy chain I51A (Fab, V domains shown, Fab, periplasmic extract; also called C5A I51A) VH: EVQLLESGGGLVQPGGSLRLSCAASGFTFSKYFMFWVRQAPGKGLEWVSVASPSGGMTRYADSVKGRFTISRDNSKNTLYLQMNSLRAEDTAVYYCARVGYGGNSDYWGQGTLVTVSS VL: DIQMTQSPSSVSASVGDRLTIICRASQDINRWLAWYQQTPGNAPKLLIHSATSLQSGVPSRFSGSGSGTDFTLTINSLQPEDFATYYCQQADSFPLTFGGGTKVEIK
[reply] 1.04

[ask] Let us now turn to XPA23 heavy chain I51L (Fab, V domains shown, Fab, periplasmic extract; also called C5A I51L) VH: EVQLLESGGGLVQPGGSLRLSCAASGFTFSKYFMFWVRQAPGKGLEWVSVLSPSGGMTRYADSVKGRFTISRDNSKNTLYLQMNSLRAEDTAVYYCARVGYGGNSDYWGQGTLVTVSS VL: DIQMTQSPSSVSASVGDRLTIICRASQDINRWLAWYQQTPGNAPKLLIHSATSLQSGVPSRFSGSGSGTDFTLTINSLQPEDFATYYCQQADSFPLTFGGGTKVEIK
[reply] 0.79

[ask] Input XPA23 heavy chain S30G (Fab, V domains shown, Fab, periplasmic extract; also called C5A S30G) VH: EVQLLESGGGLVQPGGSLRLSCAASGFTFGKYFMFWVRQAPGKGLEWVSVISPSGGMTRYADSVKGRFTISRDNSKNTLYLQMNSLRAEDTAVYYCARVGYGGNSDYWGQGTLVTVSS VL: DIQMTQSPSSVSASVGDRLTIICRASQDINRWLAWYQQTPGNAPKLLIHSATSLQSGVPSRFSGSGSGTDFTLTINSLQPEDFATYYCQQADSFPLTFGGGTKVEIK
[reply] 0.13

[ask] What about XPA23 heavy chain F35I (Fab, V domains shown, Fab, periplasmic extract; also called C5A F35I) VH: EVQLLESGGGLVQPGGSLRLSCAASGFTFSKYFMIWVRQAPGKGLEWVSVISPSGGMTRYADSVKGRFTISRDNSKNTLYLQMNSLRAEDTAVYYCARVGYGGNSDYWGQGTLVTVSS VL: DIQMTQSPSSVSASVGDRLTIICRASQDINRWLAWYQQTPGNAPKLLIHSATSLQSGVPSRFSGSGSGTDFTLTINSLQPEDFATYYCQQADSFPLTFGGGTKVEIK ?
[reply] 0.85
